MEASUREMENT TARGET: T1, RBFOX1 RRM RbFoxmut (Fox-RRM*) (Homo sapiens, UniProt Q9NWB1 109-208, R118D;E147R;N151S;E152T)
T1 sequence: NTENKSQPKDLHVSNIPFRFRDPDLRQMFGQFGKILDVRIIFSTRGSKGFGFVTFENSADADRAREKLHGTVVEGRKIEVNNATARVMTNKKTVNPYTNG
PROCEDURE TEXT: EMSA; HiTS-Eq, 1 nM pool, 10 min; buffer printed only for the single-RNA assays: 10 mM Tris pH 7.5, 150 mM NaCl, 3.4 mM EDTA, 0.001% NP-40, 30 C
STUDY CONDITIONS: tags: His6 N-terminal (pET28a); label: 5' 32P
Over roughly 16,000 sequences, “ka relative to ugcaugu” has its median near 0.096; the highest 2% begin near 0.35. The list comes from a sample in which the highest values are over-represented; it also holds close analogues and randomly drawn sequences.
For each of the binders below, state its binding signal.

The following binders have reported results that may help.
>>> result("GUGGAUU (DNA:RNA) RNA: GGGAGACCGGAAUUCAGAUUGUCCGUGGAUUUUAAAUCCCGUCGUAGCCACCA DNA 1: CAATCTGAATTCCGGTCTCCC DNA 2: TGGTGGCTACGACGGGATT")
"0.1 KA relative to UGCAUGU"
>>> result("UUGGAUU (DNA:RNA) RNA: GGGAGACCGGAAUUCAGAUUGUCCUUGGAUUUUAAAUCCCGUCGUAGCCACCA DNA 1: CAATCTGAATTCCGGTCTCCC DNA 2: TGGTGGCTACGACGGGATT")
"0.106 KA relative to UGCAUGU"
>>> result("CUGCACG (DNA:RNA) RNA: GGGAGACCGGAAUUCAGAUUGUCCCUGCACGUUAAAUCCCGUCGUAGCCACCA DNA 1: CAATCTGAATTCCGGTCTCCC DNA 2: TGGTGGCTACGACGGGATT")
"0.626 KA relative to UGCAUGU"
>>> result("UGCACGA (DNA:RNA) RNA: GGGAGACCGGAAUUCAGAUUGUCCUGCACGAUUAAAUCCCGUCGUAGCCACCA DNA 1: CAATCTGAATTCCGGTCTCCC DNA 2: TGGTGGCTACGACGGGATT")
"0.368 KA relative to UGCAUGU"

// each binder listed below needs its binding signal
1. GGGGAUG (DNA:RNA) RNA: GGGAGACCGGAAUUCAGAUUGUCCGGGGAUGUUAAAUCCCGUCGUAGCCACCA DNA 1: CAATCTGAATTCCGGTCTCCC DNA 2: TGGTGGCTACGACGGGATT
2. GGAUGUU (DNA:RNA) RNA: GGGAGACCGGAAUUCAGAUUGUCCGGAUGUUUUAAAUCCCGUCGUAGCCACCA DNA 1: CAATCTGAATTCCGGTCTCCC DNA 2: TGGTGGCTACGACGGGATT
3. CCUGCAC (DNA:RNA) RNA: GGGAGACCGGAAUUCAGAUUGUCCCCUGCACUUAAAUCCCGUCGUAGCCACCA DNA 1: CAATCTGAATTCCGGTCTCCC DNA 2: TGGTGGCTACGACGGGATT
4. CGGGAUG (DNA:RNA) RNA: GGGAGACCGGAAUUCAGAUUGUCCCGGGAUGUUAAAUCCCGUCGUAGCCACCA DNA 1: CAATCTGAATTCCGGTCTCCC DNA 2: TGGTGGCTACGACGGGATT
5. UGCACGU (DNA:RNA) RNA: GGGAGACCGGAAUUCAGAUUGUCCUGCACGUUUAAAUCCCGUCGUAGCCACCA DNA 1: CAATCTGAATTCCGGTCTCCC DNA 2: TGGTGGCTACGACGGGATT

Result:
1. 0.612 KA relative to UGCAUGU
2. 0.213 KA relative to UGCAUGU
3. 0.09 KA relative to UGCAUGU
4. 0.296 KA relative to UGCAUGU
5. 0.362 KA relative to UGCAUGU
